- Assay Target: T1, ΔNp63γ (Homo sapiens, UniProt Q9H3D4-6 1-393)
- T1 sequence: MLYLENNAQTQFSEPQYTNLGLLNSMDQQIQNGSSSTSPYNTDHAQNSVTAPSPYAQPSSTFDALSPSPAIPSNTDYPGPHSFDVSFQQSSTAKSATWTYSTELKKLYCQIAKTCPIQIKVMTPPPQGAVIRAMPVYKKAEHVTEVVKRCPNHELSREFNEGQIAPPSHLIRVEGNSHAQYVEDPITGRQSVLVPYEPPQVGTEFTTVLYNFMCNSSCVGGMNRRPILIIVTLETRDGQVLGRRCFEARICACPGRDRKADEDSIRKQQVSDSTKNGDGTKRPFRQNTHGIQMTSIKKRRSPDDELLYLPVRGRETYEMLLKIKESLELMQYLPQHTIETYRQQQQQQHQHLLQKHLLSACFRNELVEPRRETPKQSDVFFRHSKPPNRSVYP
- Measurement Protocol: fluorescence anisotropy direct titration; 25 mM sodium phosphate (purification buffer pH 7.2), 225 mM NaCl, 10% v/v glycerol, 5 mM DTT, 0.2 mg/mL BSA, 22 C
- Study Conditions: protein: recombinant; tags: N-terminal 6xHis-lipoyl-TEV tag, cleaved; chain copies: 4; label: 5'-Alexa488
Endpoint: pKd
Just the number, please; pKd means minus log10 of the concentration in mol/L.

binder Ref_Alexa488 (dsDNA) DNA 1: GGACATGTCCGGACATGTCC DNA 2: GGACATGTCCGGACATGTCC , pKd observed: 7.17

Taken from paper PMC2807882.
